molecular target: HKU4 HR2 peptide (HKU4), A3EX94; assay: peptide ELISA
Sequence (A3EX94 1228-1249 limits assumed): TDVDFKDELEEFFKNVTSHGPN
Each record here notes measured EC50.
outcome measure: EC50 (µg/mL)

[
  {
    "binder": "hr2.013 (antibody, V domains shown) VH: QVQLVQSGAEVKKPGASVKISCKASGYTFTNNYMNWVRQAPGQGLEWMGIIKPSSGSTIYAHKFQGRVTMTRDTSTSTVYMEVRSLTSEDTAVYYCARDQDHGLQNWGQGTLVTVSS VL: QSVLTQPPSVSAASGQKVTIYCSGSSSNIASNFVSWYQQFPGTAPKLLIYDNNQRPSGIPDRFSGSRSGTSATLGITGLQTGDEADYYCGTWDTSLGAWVFGGGTKLTVL",
    "experimental value": 0.0181
  },
  {
    "binder": "hr2.023 (antibody, V domains shown) VH: QVQLVQSGAEVKKPGASVKVSCRASENIFSDSYLHWVRQAPGQGLEWMGIITPSGDKTFYAQQFQGRLTMTRDTPTNTLHMDLRGLTSADTAIYYCARQATKGGWDYWGQGTLVTVSS VL: EIVLTQSPGTLSLSPGESATLSCRASQSVTRNYLAWYQQQPGQAPRLLIYGASNRATGVPDRFSGSGSGTDFTLTISRLEPEDFAVYYCQQYGSSPPTFIFGPGTKVDIK",
    "experimental value": 0.0149
  },
  {
    "binder": "hr2.024 (antibody, V domains shown) VH: QVQLVQSGAEVKKPGASVKVSCKASEDIFTDSYLHWVRQAPGQGLEWMGIITPSGDKTFYAQQFQGRLTMTRDPSTNTLYMFLSGLRSDDTAMYFCARQAEKGGWDYWGHGTLVTVSS VL: EIVLTQSPGTLSLSPGQRATLSCRSSQTITSNYLAWYQQRPGQAPRLLIYGASIRATGIPDRFSGSGSGTDFTLTISRLEPEDFAVYYCQQYGSSPPTFIFGPGTKVDIK",
    "experimental value": 0.0184
  },
  {
    "binder": "hr2.090 (antibody, V domains shown) VH: EVQLLESGGGLVQPGGSLRLSCAASGVTFSRYAMSWVRQAPGKGLEWVSTISGGGGGTYYADSVKGRFTISRDNSKNTLYLQMNSLRAEDTAVYYCATLLTVPGPYYFEYWGQGTLVTVSS VL: EIVLTQSPGTLSLSPGERATLSCRASQSVSSSYLAWYQQKPGQAPRLLIYGASSRATGIPDRFSGSGSGTDFTLTISRLESEDFAVYYCQHSRFTFGPGTRVDIK",
    "experimental value": 0.425
  }
]
